experiment: Fraction unbound in Hartley guinea pig brain homogenates at 1 uM after 6 hrs by equilibrium dialysis method; conditions: brain homogenate

COMPOUND: CN1CCCC(n2nc(Cc3ccc(Cl)cc3)c3ccccc3c2=O)CC1 (stereo not given)
fraction unbound at 6 h, 1 µM: 0.009
--
COMPOUND: CN1[C@@H]2CC[C@H]1C[C@@H](OC(=O)c1c[nH]c3ccccc13)C2
fraction unbound at 6 h, 1 µM: 0.048
--
COMPOUND: O=C1NC(=O)C(c2ccccc2)(c2ccccc2)N1
fraction unbound at 6 h, 1 µM: 0.082
--
COMPOUND: CN(C)CCCN1c2ccccc2CCc2ccc(Cl)cc21
fraction unbound at 6 h, 1 µM: 0.003
--
COMPOUND: CC(C)(C)NCC(O)COc1ccc(NC(=O)NC2CCCCC2)cc1 (stereo not given)
fraction unbound at 6 h, 1 µM: 0.117

Data origin, for the record: ChEMBL document CHEMBL3525956
